biological target: EFGR(L858R, T7790M); experiment: Kinase competition binding assay, EFGR(L858R, T7790M); conditions: Table 1 kinase panel
propertyLabel: IC50

compound="COc1cc(-c2cc(=O)c3c(O)cc(O)c(CC=C(C)C)c3o2)ccc1O [FBL-03G]" measuredvalue="> 1000 nM"
compound="COc1cc(-c2cc(=O)c3c(O)c(CC=C(C)C)c(O)cc3o2)ccc1O [FBL-03B]" measuredvalue="> 1000 nM"
compound="COc1ccc(-c2cc(=O)c3c(O)c(C/C=C(\\C)CCC=C(C)C)c(O)cc3o2)cc1OC [FBL-03D]" measuredvalue="> 30000 nM"
compound="COc1cc(-c2cc(=O)c3c(O)c(C/C=C(\\C)CCC=C(C)C)c(O)cc3o2)ccc1O [FBL-03A]" measuredvalue="> 20000 nM"

Moving on to another compound below.
Problem: Return value of IC50 for input COc1cc(-c2cc(=O)c3c(O)cc(O)c(C/C=C(\C)CCC=C(C)C)c3o2)ccc1O [FBL-03C] , no commentary.
Solution: 680 nM

====

target: BIKE (Homo sapiens, UniProt Q9NSY1); construct: made in house; assay: Kinase competition binding assay, BIKE; details: Table 1 kinase panel
Sequence (Q9NSY1 whole entry): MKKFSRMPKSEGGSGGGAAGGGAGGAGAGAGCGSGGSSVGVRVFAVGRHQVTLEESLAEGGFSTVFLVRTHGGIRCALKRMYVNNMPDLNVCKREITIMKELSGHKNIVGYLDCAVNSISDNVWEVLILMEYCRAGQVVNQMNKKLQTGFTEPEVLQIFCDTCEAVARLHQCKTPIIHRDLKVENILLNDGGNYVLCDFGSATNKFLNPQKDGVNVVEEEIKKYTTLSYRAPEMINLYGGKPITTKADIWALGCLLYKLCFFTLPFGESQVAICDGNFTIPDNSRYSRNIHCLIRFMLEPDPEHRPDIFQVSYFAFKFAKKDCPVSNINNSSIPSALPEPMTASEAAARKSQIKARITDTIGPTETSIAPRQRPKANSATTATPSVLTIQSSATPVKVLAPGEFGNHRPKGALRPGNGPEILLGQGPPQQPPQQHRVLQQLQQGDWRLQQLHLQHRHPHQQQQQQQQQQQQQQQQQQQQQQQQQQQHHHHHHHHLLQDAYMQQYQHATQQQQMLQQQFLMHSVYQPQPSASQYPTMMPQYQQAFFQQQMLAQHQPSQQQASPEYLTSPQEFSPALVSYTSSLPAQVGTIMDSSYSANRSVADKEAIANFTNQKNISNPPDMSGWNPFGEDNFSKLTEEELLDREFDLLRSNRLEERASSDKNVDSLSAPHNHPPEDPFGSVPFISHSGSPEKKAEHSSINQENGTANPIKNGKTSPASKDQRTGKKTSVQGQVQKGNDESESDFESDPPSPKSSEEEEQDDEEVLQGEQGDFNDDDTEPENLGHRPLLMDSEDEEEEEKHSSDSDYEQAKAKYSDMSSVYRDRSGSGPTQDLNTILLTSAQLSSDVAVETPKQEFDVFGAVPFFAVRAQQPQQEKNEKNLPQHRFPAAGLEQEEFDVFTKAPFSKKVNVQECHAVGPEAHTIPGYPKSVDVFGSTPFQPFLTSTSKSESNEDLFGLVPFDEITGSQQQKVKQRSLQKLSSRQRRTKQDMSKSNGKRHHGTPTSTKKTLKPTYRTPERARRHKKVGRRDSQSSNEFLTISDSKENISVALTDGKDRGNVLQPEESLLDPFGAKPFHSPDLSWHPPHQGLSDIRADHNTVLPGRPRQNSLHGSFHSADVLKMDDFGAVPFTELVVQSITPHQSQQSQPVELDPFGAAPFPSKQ
propertyLabel: IC50

Record excerpt, results attached:
molecule="COc1cc(-c2cc(=O)c3c(O)c(C/C=C(\\C)CCC=C(C)C)c(O)cc3o2)ccc1O [FBL-03A]" measuredvalue="> 20000 nM"
molecule="COc1ccc(-c2cc(=O)c3c(O)c(C/C=C(\\C)CCC=C(C)C)c(O)cc3o2)cc1OC [FBL-03D]" measuredvalue="> 30000 nM"
molecule="COc1cc(-c2cc(=O)c3c(O)cc(O)c(CC=C(C)C)c3o2)ccc1O [FBL-03G]" measuredvalue="> 20000 nM"
molecule="COc1cc(-c2cc(=O)c3c(O)cc(O)c(C/C=C(\\C)CCC=C(C)C)c3o2)ccc1O [FBL-03C]" measuredvalue="21 nM"

Next:
Problem: Enter measured IC50, system BIKE (Homo sapiens, UniProt Q9NSY1), for the molecule shown: COc1cc(-c2cc(=O)c3c(O)c(CC=C(C)C)c(O)cc3o2)ccc1O [FBL-03B]
Solution: > 20000 nM

====

target: FLT3(ITD) (Homo sapiens, UniProt P36888); construct: In general, full-length constructs were used for small, single domain kinases, and catalytic domain constructs for large multi-domain kinases; fused on or other part: T7 phage fusion or DNA tag for qPCR detection (general statement); type: binding; details: Table 4; read-out: Acute Myeloid Leukemia Kinases FLT3-ITD IC50
propertyLabel: pIC50
# pIC50 = -log10(concentration in molar units)

Problem: Return pIC50 for the following compound: O=c1cc(-c2ccc(O)c(O)c2)oc2cc(O)cc(O)c12
Solution: 6.10

Problem: Look up and state reported pIC50 for Cc1cc2oc(-c3cccc(N)c3)cc(=O)c2c([N+](=O)[O-])c1C
Solution: 6.12

Problem: Specify pIC50 for COc1cc(O)c2c(=O)c(O)c(-c3ccc(O)c(OC)c3)oc2c1 and stop.
Solution: 7.08

Problem: Answer with the recorded pIC50 for the compound listed here: COc1cc(-c2oc3cc(O)ccc3c(=O)c2O)ccc1O
Solution: 8.42

Problem: Identify pIC50 associated with the compound COc1cc(O)c2c(=O)c(O)c(-c3ccc(O)c(O)c3)oc2c1 [FBLGS-78]
Solution: 6.46

Problem: Please give the documented pIC50 of O=C1CC(c2ccc(O)c(O)c2)Oc2cc(O)cc(O)c21 (stereo not shown)
Solution: 4.92

Problem: Query pIC50 for O=c1c(O)c(-c2ccc(O)c(O)c2)oc2cc(O)ccc12
Solution: 6.74

Problem: Note pIC50 for the compound shown: COc1cc(-c2cc(=O)c3c(O)c(OC)c(O)cc3o2)ccc1O
Solution: 7.35

Problem: Give the value of pIC50 reported for the following: O=c1cc(-c2ccccc2)oc2cc(O)cc(O)c12
Solution: 7.04

Problem: Please look at this compound and report its pIC50: O=c1c(O)c(-c2ccc(O)c(O)c2)oc2cc(O)cc(O)c12
Solution: 6.34

Problem: Identify measured pIC50 corresponding to COc1cc(O)c2c(=O)c(O)c(-c3ccc(O)c(O)c3)oc2c1 [FBLGS-79]
Solution: 7.08

Problem: Entry COc1cc(-c2cc(=O)c3c(O)c(OC)c(OC)cc3o2)ccc1O needs its pIC50 filled in; supply it.
Solution: 7.24

Problem: Respond only with pIC50 recorded for COc1ccc(C2CC(=O)c3c(O)cc(O)cc3O2)cc1O (stereo not shown)
Solution: 5.04
